- Test Target: T1, XPF (truncated);ERCC1 (truncated) (human;human, UniProt Q92889;P07992 640-916;93-297, |)
- T1 sequence 1: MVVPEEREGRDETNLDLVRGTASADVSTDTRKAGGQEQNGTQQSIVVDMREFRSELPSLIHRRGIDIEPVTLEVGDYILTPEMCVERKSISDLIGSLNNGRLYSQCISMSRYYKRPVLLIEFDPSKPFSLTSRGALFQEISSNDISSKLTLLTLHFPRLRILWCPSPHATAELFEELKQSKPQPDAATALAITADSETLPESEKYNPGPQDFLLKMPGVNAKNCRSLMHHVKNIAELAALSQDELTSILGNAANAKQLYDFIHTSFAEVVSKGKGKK
- T1 sequence 2: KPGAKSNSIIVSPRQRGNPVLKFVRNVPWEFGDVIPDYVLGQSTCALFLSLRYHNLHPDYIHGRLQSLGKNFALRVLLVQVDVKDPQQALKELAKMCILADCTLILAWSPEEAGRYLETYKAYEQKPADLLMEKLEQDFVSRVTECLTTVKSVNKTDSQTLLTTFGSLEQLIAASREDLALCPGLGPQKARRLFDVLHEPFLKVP
- Protocol Details: fluorescence anisotropy; mwPIFE, room temp, 30 min: BamHI 10 mM Tris-HCl pH 8, 100 mM KCl, 0.02% Triton X-100, 0.1 mg/ml BSA, 5 mM EDTA/MgCl2/CaCl2; Ku 35 mM Tris-Cl pH 7.9, 5.5% glycerol, 150 mM KCl, 1 mM EDTA, 0.1 mM DTT, 1.5 mM imidazole; XPF/ERCC1 10 mM Tris-Cl pH 8, 10 mM NaCl. FA: 10 mM Tris-HCl pH 8, 10 mM NaCl, 10% glycerol, 1 mM TCEP, 50 nM DNA, 25 C
- Test Settings: protein: recombinant;recombinant; tags: none;GST-His6 N-terminal, removed by TEV; copies: 1;1; 5' overhang 1 nt on strand 1 as printed (meant blunt)

{"Binder": "10ds (dsDNA) DNA 1: CAGCGCTCGG DNA 2: CCGAGCGCT", "Kd": "4.75 µM"}
